tgt: T1, cynomolgus αVβ6 on cells (cynomolgus)
T1 construct: whole, on cells; also called macaque αVβ6; Mac AVB6
assay_name: FACS, supernatant, HEK-293 cells transfected with cynomolgus αV and β6
recorded_endpoint: Mac AVB6 GeoMean
Please state the value as a number alone, without comment.

Measured Mac AVB6 GeoMean of sc 320 (antibody, V domains shown, Fully human XenoMouse mAb) VH: EVQLVESGGGLVKPGGSLRLSCAASGYTFTNYIMHWVRQAPGKGLEWVSSISISSSYIYYADSVKGRFTISRDNAKNSLYLQMNSLRAEDTAVYYCARDPVPLERRDYYYGMDVWGQGTTVTVSS VL: QSVLTQPPSMSAAPGQKVTISCSGSSSNIGNNYVSWYQQLPGTAPKLLIYDNNKRPSGIPDRFSGSKSGTSATLGITGLQTGDEADYYCGTWDSSLSAGVFGGGTKLTVL : 33.5

The reported numbers originate from patent US20150166663A1.
